Target: Cytochrome P450 1A2 (Homo sapiens, UniProt P05177)
Sequence (P05177 whole entry): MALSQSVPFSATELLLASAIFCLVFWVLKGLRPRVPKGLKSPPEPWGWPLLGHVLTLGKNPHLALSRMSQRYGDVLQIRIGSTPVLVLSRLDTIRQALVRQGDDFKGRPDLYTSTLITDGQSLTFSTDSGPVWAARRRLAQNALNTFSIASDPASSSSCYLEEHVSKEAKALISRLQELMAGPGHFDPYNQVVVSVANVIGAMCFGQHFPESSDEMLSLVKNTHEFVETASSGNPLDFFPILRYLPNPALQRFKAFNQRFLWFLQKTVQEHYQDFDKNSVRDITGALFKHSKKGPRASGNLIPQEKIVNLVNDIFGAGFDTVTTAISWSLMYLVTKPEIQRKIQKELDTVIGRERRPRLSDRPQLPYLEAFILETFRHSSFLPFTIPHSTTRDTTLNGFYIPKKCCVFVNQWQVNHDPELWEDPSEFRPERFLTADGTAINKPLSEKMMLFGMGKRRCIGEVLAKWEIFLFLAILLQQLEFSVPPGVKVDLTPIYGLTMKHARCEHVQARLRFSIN
pIC50: −log10 of the molar value.
Assay metric: pIC50

Value lookup for pIC50; key = Cc1ccc(-c2cccc(CO)c2)nc1C(=O)Nc1c(C)ccc(C(=O)O)c1C
< 5.00

----------
Sequence of the target: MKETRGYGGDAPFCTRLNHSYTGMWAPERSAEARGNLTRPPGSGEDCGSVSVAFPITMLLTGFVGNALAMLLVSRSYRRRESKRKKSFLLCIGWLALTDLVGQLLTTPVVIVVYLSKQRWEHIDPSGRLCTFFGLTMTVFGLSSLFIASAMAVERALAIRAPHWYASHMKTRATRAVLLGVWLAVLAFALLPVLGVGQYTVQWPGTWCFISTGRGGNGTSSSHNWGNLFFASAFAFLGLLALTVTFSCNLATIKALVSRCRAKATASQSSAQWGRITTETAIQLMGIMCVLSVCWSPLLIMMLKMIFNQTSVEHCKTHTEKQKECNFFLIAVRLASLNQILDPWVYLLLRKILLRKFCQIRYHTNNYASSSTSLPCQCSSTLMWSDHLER
Assay metric: Ki

Value lookup for Ki; key = Cc1ccc(-c2cccc(CO)c2)nc1C(=O)Nc1c(C)ccc(C(=O)O)c1C
> 14 µM

----------
assay: Half life in dog at 5 mg/kg, po; format: ADME, organism-based, Canis lupus familiaris; conditions: in vivo
Assay metric: half-life
Please state the number and follow it with the unit.

Value lookup for half-life; key = Cc1ccc(-c2cccc(CO)c2)nc1C(=O)Nc1c(C)ccc(C(=O)O)c1C
1.1 h

----------
molecular target: Prostaglandin E2 receptor EP4 subtype (Homo sapiens); experiment: Antagonist activity at human EP4 receptor expressed in HEK293 cells assessed as inhibition of PGE2-stimulated cAMP production after 1 hr by HTRF assay; type: functional, cell-based
Sequence (P35408 whole entry): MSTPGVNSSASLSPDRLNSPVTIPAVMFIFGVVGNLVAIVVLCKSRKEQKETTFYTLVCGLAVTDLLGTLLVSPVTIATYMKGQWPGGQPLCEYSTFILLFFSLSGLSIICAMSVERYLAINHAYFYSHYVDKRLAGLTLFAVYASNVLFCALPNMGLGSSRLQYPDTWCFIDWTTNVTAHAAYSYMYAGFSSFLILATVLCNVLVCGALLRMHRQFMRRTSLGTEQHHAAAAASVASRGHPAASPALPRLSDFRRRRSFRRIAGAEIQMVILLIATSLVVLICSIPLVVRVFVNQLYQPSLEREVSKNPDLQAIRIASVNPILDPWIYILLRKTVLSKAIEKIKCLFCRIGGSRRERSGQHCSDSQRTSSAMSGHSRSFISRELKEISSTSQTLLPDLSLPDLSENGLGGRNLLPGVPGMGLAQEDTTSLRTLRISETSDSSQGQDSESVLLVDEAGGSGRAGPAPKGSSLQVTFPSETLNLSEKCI
Assay metric: pIC50
The quantity pIC50 is defined as the negative base-10 logarithm of the molar concentration.

Answered examples (5):
                                 mol_smiles                               test_target  observed_result
0  Cc1ccc(-c2cccc(Cl)c2)nc1C(=O)Nc1c(C)ccc(C(=O)O)c1C  Prostaglandin E2 receptor EP4 subtype (Homo sapiens)             8.81
1  Cc1cc(C(=O)O)cc(C)c1NC(=O)c1nc(-c2cccc(CO)c2)ccc1C(F)(F)F  Prostaglandin E2 receptor EP4 subtype (Homo sapiens)             9.17
2  Cc1ccc(C(=O)O)c(C)c1NC(=O)c1nc(-c2cccc(CO)c2)ccc1C(F)(F)F  Prostaglandin E2 receptor EP4 subtype (Homo sapiens)             8.71
3  Cc1cc(C(=O)O)cc(C)c1NC(=O)c1cc(-c2cccc(CO)c2)ccc1F  Prostaglandin E2 receptor EP4 subtype (Homo sapiens)             9.14
4  Cc1ccc(-c2cccc(CO)c2)cc1C(=O)Nc1c(C)cc(C(=O)O)cc1C  Prostaglandin E2 receptor EP4 subtype (Homo sapiens)             9.55

Value lookup for pIC50; key = Cc1ccc(-c2cccc(CO)c2)nc1C(=O)Nc1c(C)cc(C(=O)O)cc1C
9.17

Value lookup for pIC50; key = Cc1ccc(C(=O)O)c(C)c1NC(=O)c1cc(-c2cccc(CO)c2)ccc1F
8.35
